- target-desc: Kappa-type opioid receptor (Cavia porcellus, UniProt P41144)
- Sequence (P41144 whole entry): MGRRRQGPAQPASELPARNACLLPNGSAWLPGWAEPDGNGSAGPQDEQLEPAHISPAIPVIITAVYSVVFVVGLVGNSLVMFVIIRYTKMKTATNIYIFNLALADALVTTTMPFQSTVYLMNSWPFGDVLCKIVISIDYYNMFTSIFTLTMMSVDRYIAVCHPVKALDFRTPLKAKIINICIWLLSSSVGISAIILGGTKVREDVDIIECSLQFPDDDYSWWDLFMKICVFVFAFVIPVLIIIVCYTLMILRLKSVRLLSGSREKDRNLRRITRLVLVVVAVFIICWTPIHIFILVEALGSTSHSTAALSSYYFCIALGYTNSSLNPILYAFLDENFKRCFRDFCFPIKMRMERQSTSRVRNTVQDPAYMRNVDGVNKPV
pKi: −log10 of the molar value.
Returns label 1 if the recorded pKi is greater than or equal to 8, and label 0 otherwise.

# compound, assigned-category
data = [
    ("CC(C)[C@@H](CN1CC[C@@](C)(c2cccc(O)c2)[C@@H](C)C1)NC(=O)[C@H]1Cc2ccccc2CN1", "label 1"),
    ("CC(C)[C@@H](CN1CC[C@@](C)(c2cccc(O)c2)[C@@H](C)C1)NC[C@H]1Cc2ccc(O)cc2CN1", "label 1"),
    ("CC(=O)N1Cc2cc(O)ccc2C[C@@H]1C(=O)N[C@H](CN1CC[C@@](C)(c2cccc(O)c2)[C@@H](C)C1)C(C)C", "label 0"),
    ("CC(C)[C@@H](CN1CC[C@](C)(c2cccc(O)c2)[C@H](C)C1)NC(=O)[C@H]1Cc2ccc(O)cc2CN1", "label 0"),
    ("N=C(N)Nc1ccc2[nH]c3c(c2c1)C[C@@]1(O)[C@H]2Cc4ccc(O)c5c4[C@@]1(CCN2CC1CC1)[C@H]3O5", "label 1"),
    ("CC(C)[C@@H](CN1CC[C@@](C)(c2cccc(O)c2)[C@@H](C)C1)NC(=O)[C@H]1Cc2ccc(O)cc2CN1C", "label 1"),
    ("CC(C)[C@@H](CN1CC[C@@](C)(c2cccc(O)c2)[C@@H](C)C1)NC(=O)[C@@H](N)Cc1ccc(O)cc1 (stereo in doubt; form 1)", "label 0"),
]

====

- target-desc: Delta-type opioid receptor (Homo sapiens, UniProt P41143)
- Sequence (P41143 whole entry): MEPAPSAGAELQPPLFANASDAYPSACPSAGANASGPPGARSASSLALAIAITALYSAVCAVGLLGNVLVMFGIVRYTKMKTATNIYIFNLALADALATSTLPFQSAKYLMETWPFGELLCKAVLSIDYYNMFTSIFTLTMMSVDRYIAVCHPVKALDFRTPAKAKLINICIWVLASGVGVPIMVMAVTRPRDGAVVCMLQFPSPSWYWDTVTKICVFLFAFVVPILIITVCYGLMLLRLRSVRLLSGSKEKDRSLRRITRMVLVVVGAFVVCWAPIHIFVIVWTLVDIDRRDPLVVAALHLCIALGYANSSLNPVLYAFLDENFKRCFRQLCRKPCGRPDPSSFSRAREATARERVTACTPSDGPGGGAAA
- assay-summary: Antagonistic activity against human cloned Opioid receptor delta 1 using DPDPE in [35S]GTP-gamma-S, assay
- Type: functional

# smi, target-desc, Ke
records = [
    ("CC(C)[C@@H](CN1CC[C@@](C)(c2cccc(O)c2)[C@@H](C)C1)NC(=O)[C@H]1Cc2ccc(O)cc2CN1C", "Delta-type opioid receptor (Homo sapiens, UniProt P41143)", "120 nM"),
    ("CC(C)[C@@H](CN1CC[C@@](C)(c2cccc(O)c2)[C@@H](C)C1)NC(=O)[C@H]1Cc2ccc(O)cc2CN1C(=O)CN(C)C", "Delta-type opioid receptor (Homo sapiens, UniProt P41143)", "299 nM"),
    ("CC(C)[C@@H](CN1CC[C@@](C)(c2cccc(O)c2)[C@@H](C)C1)NC(=O)[C@H]1Cc2ccc(O)cc2CN1", "Delta-type opioid receptor (Homo sapiens, UniProt P41143)", "79.3 nM"),
    ("Oc1ccc2c3c1O[C@H]1c4[nH]c5c(c4C[C@@]4(O)[C@@H](C2)N(CC2CC2)CC[C@]314)C[C@@]1(O)[C@H]2Cc3ccc(O)c4c3[C@@]1(CCN2CC1CC1)[C@H]5O4", "Delta-type opioid receptor (Homo sapiens, UniProt P41143)", "4.4 nM"),
    ("CC(C)[C@@H](CN1CC[C@@](C)(c2cccc(O)c2)[C@@H](C)C1)NC[C@H]1Cc2ccc(O)cc2CN1", "Delta-type opioid receptor (Homo sapiens, UniProt P41143)", "427 nM"),
]

====

- target-desc: Kappa-type opioid receptor (Cavia porcellus) (UniProt P41144)
- assay-summary: Inhibition of U69,593 antagonistic activity in [35S]GTP-gamma-S, assay against guinea pig Opioid receptor kappa 1
- Format: functional
Label y when Ke is strictly below 20 nM; otherwise label n.

# molecule, assigned-category
data = [
    ("CC(C)[C@@H](CN1CC[C@@](C)(c2cccc(O)c2)[C@@H](C)C1)NC(=O)[C@@H](N)Cc1ccc(O)cc1 (stereo in doubt; form 2)", "n"),
    ("CC(C)[C@@H](CN1CC[C@@](C)(c2cccc(O)c2)[C@@H](C)C1)NC(=O)[C@@H](N)Cc1ccc(O)cc1 (stereo in doubt; form 1)", "n"),
    ("CC(C)[C@@H](CN1CC[C@@](C)(c2cccc(O)c2)[C@@H](C)C1)NC(=O)[C@H]1Cc2ccc(O)cc2CN1", "y"),
    ("CC(C)[C@@H](CN1CC[C@@](C)(c2cccc(O)c2)[C@@H](C)C1)NC(=O)[C@H]1Cc2ccc(O)cc2CN1C(=O)CN(C)C", "y"),
    ("CC(C)[C@@H](CN1CC[C@@](C)(c2cccc(O)c2)[C@@H](C)C1)NC[C@H]1Cc2ccc(O)cc2CN1", "y"),
    ("CC(C)[C@@H](CN1CC[C@@](C)(c2cccc(O)c2)[C@@H](C)C1)NC(=O)[C@H]1Cc2ccc(O)cc2CN1C", "y"),
    ("CC(C)[C@@H](CN1CC[C@](C)(c2cccc(O)c2)[C@H](C)C1)NC(=O)[C@H]1Cc2ccc(O)cc2CN1", "y"),
    ("CC(C)[C@@H](CN1CC[C@@](C)(c2cccc(O)c2)[C@@H](C)C1)NC(=O)[C@@H]1Cc2ccc(O)cc2CN1", "y"),
]

====

Here's a batch of compounds along with measured Ki for Kappa-type opioid receptor (Cavia porcellus, UniProt P41144).

# compound, unit-info, Ki
data = [
    ("CC(C)[C@@H](CN1CC[C@@](C)(c2cccc(O)c2)[C@@H](C)C1)NC(=O)[C@@H]1Cc2ccc(O)cc2CN1", "nM", 9.8),
    ("CC(C)[C@@H](CN1CC[C@@](C)(c2cccc(O)c2)[C@@H](C)C1)NC(=O)[C@H]1Cc2ccc(O)cc2CN1C(=O)CN(C)C", "nM", 15.5),
    ("CC(C)[C@@H](CN1CC[C@@](C)(c2cccc(O)c2)[C@@H](C)C1)NC(=O)[C@@H](N)Cc1ccc(O)cc1 (stereo in doubt; form 2)", "nM", 16),
]
